Cited source: PubChem BioAssay (NCI)

experiment.notes: NCI Yeast Anticancer Drug Screen. Data for the mec2-1 strain (AID 157)
cond: S. cerevisiae mec2-1 strain, at 50.0 µM (retest, dose inferred, filed as 5.0)
Description: Growth inhibition of yeast strains with defined genetic alterations is measured as a screen for potential anti-cancer activity. Selected strains with alterations in DNA damage repair or cell cycle control were exposed to compounds and growth inhibition was measured relative to vehicle treated controls. The strain used in this assay is mec2-1
The panel holds about 79,000 compounds, 15% with a hit somewhere; the sample as a whole holds those more often. Activity calls are given as the source filed them. No stated cut-off is given here; in the data, active means growth inhibition above about 70%; inactive means the rest.
Bench note: report the call from 1 (yes) (active), 0 (no) (inactive)

input: Please share the test call associated with "O=[N+]([O-])C(=C(NCc1ccccc1)NCc1ccccc1)C(Cl)=C(Cl)Cl" .
output: 0 (no)

input: Likewise for "Cc1cnccc1N=Nc1ccc(N(C)C)cc1" ?
output: 0 (no)

input: Likewise for "CCCC#CCOC(=O)c1cc([N+](=O)[O-])cc([N+](=O)[O-])c1" ?
output: 1 (yes)

input: Likewise for "Cc1c2ccncc2c(C)c2c1oc1ccccc12" ?
output: 1 (yes)

input: Likewise for "O=CC(=C(I)I)c1ccccc1" ?
output: 1 (yes)

input: Likewise for "CNC(=O)OCc1c(COC(=O)NC)c(C)n(-c2ccc(Cl)c(Cl)c2)c1C" ?
output: 1 (yes)

input: Likewise for "CN(C)CCNC(=O)c1cccc2nc3c4ccccc4c4ccccc4c3nc12" ?
output: 1 (yes)

input: Likewise for OC1C#CCSCC#C/C=C\1 (configuration not stated) ?
output: 1 (yes)

input: Likewise for "CNc1ccc2[nH]c3ccccc3c2c1" ?
output: 0 (no)

input: Likewise for "O=C(/C(=C/c1ccccc1)CBr)c1ccccc1" ?
output: 1 (yes)

input: Likewise for "Cc1ccc(Cl)c2c(=O)c3ccccc3[nH]c12" ?
output: 0 (no)

input: Likewise for c1ccc2cc(OCC3CO3)c(OCC3CO3)cc2c1 (configuration not stated) ?
output: 0 (no)

###

experiment.notes: NCI Yeast Anticancer Drug Screen. Data for the rad18 strain (AID 177)
cond: S. cerevisiae rad18 mutant growth inhibition; at 1.2 µM
Method: Growth inhibition of yeast strains with defined genetic alterations is measured as a screen for potential anti-cancer activity. Selected strains with alterations in DNA damage repair or cell cycle control were exposed to compounds and growth inhibition was measured relative to vehicle treated controls. The strain used in this assay is rad18
Compounds without any hit were thinned out: in the full panel of roughly 79,000, 15% have a hit. Active and inactive are the calls of the source. No stated cut-off is given here; in the data, active means growth inhibition above about 70%; inactive means the rest. Starred links: 1 amine or outer side, 2 acyl side, 3 side chain; linkers in the order of their positions; H or OH if unused. Positions of bridges follow the written chain, without caps; N, C: chain ends. Non-standard residues stand in square brackets, D forms with d. Residues, ends and D or L forms follow the SMILES beside them. Chains are numbered I, II in the order given. Actinocin(9to1) = Cc1c2oc3c(C)ccc(C(=O)[*:1])c3nc-2c(C(=O)[*:2])c(N)c1=O; aThr = C[C@H](O)[C@H](N)C(=O)O; NMeV = CN[C@H](C(=O)O)C(C)C; Sar = CNCC(=O)O
Bench note: report the call from active, inactive

input: Please share the test call associated with "CN(C)c1ccc(C(c2ccc(Cl)cc2)c2ccc(N(C)C)cc2)cc1" .
output: active

input: Likewise for CCCCCCCCCCCCCCCCOCC(Cl)COP(=O)(O)OP(=O)(O)OCC1OC(n2cnc3c(N)ncnc32)C(O)C1O (configuration not stated) ?
output: inactive

input: Likewise for c1ccc2cc(OCC3CO3)c(OCC3CO3)cc2c1 (configuration not stated) ?
output: inactive

input: Likewise for "O=C1C=CC(=O)N1c1ccc(Br)cc1Cl" ?
output: active

input: Likewise for "CC(=O)c1ccc(NCN2C(=O)c3ccccc3C2=O)cc1" ?
output: inactive

input: Likewise for CCC(C)/C(C)=N/NC(N)=O (configuration not stated) ?
output: inactive

input: Likewise for CCCCCCCCCCCCOC1C(COCCN2CCCC2)OC2OC(C)(C)OC21 (configuration not stated) ?
output: inactive

input: Likewise for "Cc1ccc(SSc2ccc(C)cc2[N+](=O)[O-])c([N+](=O)[O-])c1" ?
output: inactive

input: Likewise for "Cc1c2ccncc2c(C)c2c1oc1ccccc12" ?
output: inactive

input: Likewise for "COc1ccc(/C=C2\CCc3ccccc3C2=O)cc1OC" ?
output: inactive

input: Likewise for "CN(C)CCn1c2ccccc2c2nc3cc4ccccc4cc3nc21" ?
output: inactive

input: Likewise for O=C1c2ccccc2C2CCC1c1ccccc12 (configuration not stated) ?
output: inactive

input: Likewise for "S=c1[nH]nc(Cc2ccccc2)c(=S)[nH]1" ?
output: inactive

input: Likewise for CCCCCCC(CCl)c1sc(-c2csc(CCNC(=O)OC(C)(C)C)n2)nc1C(=O)OC (configuration not stated) ?
output: inactive

input: Likewise for Cc1c2oc3c(C)ccc(C(=O)N[C@@H]4C(=O)N[C@H](C(C)C)C(=O)N5CCC[C@H]5C(=O)N(C)CC(=O)N(C)[C@@H](C(C)C)C(=O)O[C@H]4C)c3nc-2c(C(=O)N[C@@H]2C(=O)N[C@H](C(C)C)C(=O)N3CCC[C@H]3C(=O)N(C)CC(=O)N(C)[C@@H](C(C)C)C(=O)O[C@H]2C)c(N)c1=O (I: [aThr][dV]P[Sar][NMeV] / II: [aThr][dV]P[Sar][NMeV]; ester I:1-I:C, II:1-II:C; linker I:N-II:N via Actinocin(9to1)) ?
output: inactive

input: Likewise for "Cc1cnccc1N=Nc1ccc(N(C)C)cc1" ?
output: inactive

input: Likewise for "CCOC(=O)/C(O)=C(/C=N/C(=S)Nc1c(CC)cccc1CC)C(=O)OCC" ?
output: inactive

input: Likewise for "O=C(N/N=C/c1ccc2c(c1)CCC2)c1ccccc1[N+](=O)[O-]" ?
output: inactive

input: Likewise for Cc1nc2ccc(Br)cc2c(=O)n1-c1ccc(NC2OCC(O)C(O)C2O)cc1 (configuration not stated) ?
output: inactive

input: Likewise for "Cc1cnc(/C=N\NC(N)=S)c2cccc(N)c12" ?
output: inactive

input: Likewise for CCC1SC(=S)N(c2ccc(Cl)cc2)C1=O (configuration not stated) ?
output: inactive

input: Likewise for CC1(C)CC(=O)C(C(CC(c2ccccc2)c2cc3c(cc2O)OCO3)C2=C(O)CC(C)(C)CC2=O)=C(O)C1 (configuration not stated) ?
output: inactive

input: Likewise for "Oc1ccc(Br)cc1C=Nc1cccc(C(F)(F)F)c1" ?
output: inactive

input: Likewise for O=C(O)NCC1CCCCC1 (tested in a mixture with another compound) ?
output: inactive

input: Likewise for "CCCCCCCCCCCCCCCCCN" ?
output: inactive

input: Likewise for "CCSc1c2ccccc2c(-c2nc(F)nc(F)n2)n1CCc1ccccc1" ?
output: inactive

input: Likewise for [N-]=[N+]=NC1CC(n2ccc(=O)[nH]c2=O)OC1COC(c1ccccc1)(c1ccccc1)c1ccccc1 (configuration not stated) ?
output: inactive

input: Likewise for CC(C)OC(CCC#N)c1ccc(Cl)cc1 (configuration not stated) ?
output: inactive

input: Likewise for "N=c1oc2ccccc2cc1-c1nc2ccccc2[nH]1" ?
output: inactive

input: Likewise for "O=S(=O)(O)CC[S][Sn]([S]CCS(=O)(=O)O)([c]1ccccc1)[c]1ccccc1" ?
output: inactive

input: Likewise for "CCN(CC)c1ccc(N=Nc2cc(S(=O)(=O)O)ccc2O)c(O)c1" ?
output: inactive

input: Likewise for CSc1ccc2c(c1)C(N1CCN(C)CC1)Cc1ccccc1S2 (configuration not stated) ?
output: inactive

input: Likewise for "c1cc(Nc2ccc3c(c2)OCO3)c2cc(C3CCCCC3)ccc2n1" ?
output: inactive

input: Likewise for "Cc1[nH]nc(C(F)(F)F)c1N=NN(C)C" ?
output: inactive

input: Likewise for "CCOc1nc(OCC)nc(-c2cccn2-c2ccccc2)n1" ?
output: inactive

input: Likewise for "CCCC#CCOC(=O)c1cc([N+](=O)[O-])cc([N+](=O)[O-])c1" ?
output: inactive

input: Likewise for "CC(C)(C(=O)NN)c1ccccc1" ?
output: inactive

input: Likewise for "CNc1ccc2[nH]c3ccccc3c2c1" ?
output: inactive

input: Likewise for "c1cc2ccc3cc4ncccc4c4ccc(c1)c2c34" ?
output: inactive

input: Likewise for "O=c1c(Br)cc2c(-c3ccccc3)c3cc(Br)c(O)c(Br)c3oc-2c1Br" ?
output: inactive

input: Likewise for "[Cl][Pt+2][Cl].[NH-]CC1(C[NH-])CCCCC1" ?
output: inactive

input: Likewise for CCOC(=O)C(NC(=O)c1ccccc1)[CH](c1ccccc1)[Sn]([c]1ccccc1)([c]1ccccc1)[c]1ccccc1 (configuration not stated) ?
output: inactive
